Attribution: PubChem BioAssay (NCATS)

Tested on: MCC-26
assayMethodText: qHTS assay to identify novel small-molecules to repurpose for Merkel cell carcinoma treatment (AID 1296009); note: nearly all actives have a fitted effect of over 60% in size
reportedConditions: MCC and control cell lines, CellTiter-Glo viability, 72 h; series mostly up to 46 µM
Records with an inconclusive call do not appear. Calls of active or inactive are those of the source. Calls come from the whole dose curve; as a rule, active = well fitted inhibition curve with a large enough effect; inconclusive = small, poorly fitted or top-dose-only effect; inactive = flat fitted curve, though single readings scatter.
measuredParameter: outcome

Some entries whose results are on file:
{"columns": ["molecule", "outcome"],
 "data": [
  ["C=CCc1cccc(C=NNC(=O)CN2CCN(Cc3ccccc3)CC2)c1O", "inactive"],
  ["CCNC(=O)Nc1ccc(Oc2ncnc(N)c2C=NOC)cc1Cl", "inactive"],
  ["C=C1c2cccc(O)c2C(O)=C2C(=O)[C@@]3(O)C(O)=C(C(N)=O)C(=O)[C@@H](N(C)C)[C@@H]3[C@@H](O)[C@H]12", "inactive"],
  ["CC(C)C[C@@H](N)[C@H](O)C(=O)N[C@H](C(=O)N[C@H](C(=O)N[C@@H](CC(=O)O)C(=O)O)C(C)C)C(C)C", "inactive"],
  ["O=C(c1ccc(F)c(F)c1Nc1ccc(I)cc1F)N1CC(O)([C@H]2CCCCN2)C1", "inactive"],
  ["COc1cc2c(cc1Cc1cccc(Cl)c1F)c(=O)c(C(=O)O)cn2[C@H](CO)C(C)C", "inactive"]
]}

Recorded result, COc1cccc(OC)c1-c1cc(C(=O)NC2(C(=O)O)C3CC4CC(C3)CC2C4)nn1-c1ccnc2cc(Cl)ccc12 (stereo not drawn) , outcome: inactive

Recorded result, CNC(=O)[C@H](CC1=CN=C2C=CCC=C12)NC(=O)[C@@H](CC(=O)NO)CC(C)C , outcome: inactive
